Molecular target: Toll-like receptor 7 (Homo sapiens)
Sequence (whole entry): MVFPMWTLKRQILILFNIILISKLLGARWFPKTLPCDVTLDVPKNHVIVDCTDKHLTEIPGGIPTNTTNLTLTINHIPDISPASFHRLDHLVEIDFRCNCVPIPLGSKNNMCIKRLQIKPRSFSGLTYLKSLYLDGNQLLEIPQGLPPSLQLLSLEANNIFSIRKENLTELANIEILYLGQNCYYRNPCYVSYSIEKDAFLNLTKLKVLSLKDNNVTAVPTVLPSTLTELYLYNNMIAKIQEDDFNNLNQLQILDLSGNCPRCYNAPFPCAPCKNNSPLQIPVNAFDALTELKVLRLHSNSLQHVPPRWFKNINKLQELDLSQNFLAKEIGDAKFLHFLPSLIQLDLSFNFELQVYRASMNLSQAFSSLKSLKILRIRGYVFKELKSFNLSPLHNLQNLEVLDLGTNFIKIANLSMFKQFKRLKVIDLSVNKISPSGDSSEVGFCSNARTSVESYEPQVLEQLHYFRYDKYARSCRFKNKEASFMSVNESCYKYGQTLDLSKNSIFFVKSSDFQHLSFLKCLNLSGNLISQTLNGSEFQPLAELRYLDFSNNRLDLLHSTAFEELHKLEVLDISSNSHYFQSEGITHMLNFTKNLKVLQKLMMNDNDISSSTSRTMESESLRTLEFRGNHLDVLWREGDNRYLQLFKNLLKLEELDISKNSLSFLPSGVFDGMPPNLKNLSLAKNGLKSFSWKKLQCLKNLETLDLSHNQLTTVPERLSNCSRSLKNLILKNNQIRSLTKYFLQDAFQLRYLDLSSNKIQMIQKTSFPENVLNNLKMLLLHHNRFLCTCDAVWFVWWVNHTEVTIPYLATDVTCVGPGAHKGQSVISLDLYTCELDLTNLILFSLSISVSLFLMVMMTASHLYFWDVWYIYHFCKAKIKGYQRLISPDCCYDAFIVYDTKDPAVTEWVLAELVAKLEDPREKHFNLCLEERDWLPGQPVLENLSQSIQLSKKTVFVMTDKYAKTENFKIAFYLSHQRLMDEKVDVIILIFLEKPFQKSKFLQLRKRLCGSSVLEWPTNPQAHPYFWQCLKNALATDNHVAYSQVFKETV
Assay: Agonist activity at TLR7 in human PBMC assessed as suppression of HCV replicon replication in human HuH7 luc/neo cells harboring RNA encoding bicistronic expression construct comprising wild type HCV type 1b NS3-NS5B regions exposed to conditioned media from compound treated PBMCs by luciferase reporter gene assay
Type: cell-based
READOUT_LABEL: MEC (µM)
Answers are plain numbers, in µM.

Consider the worked cases shown below.
CCCCNc1nc(N)ncc1OCC : 1.43
CCCCNc1nc(N)nc2ccc(CCc3ccccn3)cc12 : 0.04
CCCCNc1nc(N)nc2ccc(C#N)cc12 : 13.2
CCCCNc1nc(N)nc2cccc(C(=O)NCc3ccccc3)c12 : 0.03
CCCCNc1nc(N)nc2cccc(OCc3nccc(OC)c3OC)c12 : 0.034
CCCCNc1nc(N)nc2cc(OC)c(OC)cc12 : 2.05
CCCCNc1nc(N)nc2cccc(CC3CCCC3)c12 : 0.09
CCCC(C)Nc1nc(N)nc2ccccc12 (stereo not drawn) : 0.1

Quick request: MEC for each listed item, please.
1. CC(C)CCNc1nc(N)nc2ccccc12
2. CCCCNc1nc(N)nc2ccc(CCc3ccc(N(C)C)cc3)cc12

1. 1.5
2. 0.15

State the recorded MEC for every item in the following list.
1. CCCCNc1nc(N)nc2cccc(OCc3cccnc3)c12
2. CCCCNc1nc(N)nc2cccc(OCc3ccccn3)c12
3. CCCCCNc1nc(N)nc2ccccc12
4. CNc1nc(N)nc2ccccc12

1. 0.011
2. 0.043
3. 0.04
4. 8.88

# per-item lookup of MEC; items listed below
1. CCCCNc1nc(N)nc2cccc(C(=O)N(C)Cc3ccccc3)c12
2. CCCNc1nc(N)nc2ccccc12
3. CCCCNc1nc(N)nc2cccc(C(=O)NC(C)C)c12
4. CCCCNc1nc(N)nc2cccc(OCc3ccc(CO)cc3OC)c12

1: 0.27; 2: 0.67; 3: 0.56; 4: 0.018
